Data provenance: patent US12590071B2

# ASSAY_OVERVIEW: Liver microsomal stability (rat)
# Assay type: in vitro ADME
# TEST_CONTEXT: amount of substrate remaining; 1 μM, 0.25 mg/mL microsomes, 37° C., 30 minutes
One threshold, 70%, splits the recorded liver microsomal stability, Rat (%) values: lower ones are label 1, equal or higher ones are label 0.

Reference set, count: 8
# COMPOUND, LABEL
data = [
    ("COc1cc(-c2nccc(C)n2)ccc1NN=C(C#N)C#N [Compound 42]", "label 1"),
    ("N#CC(C#N)=NNc1ccc2scnc2c1 [Compound 61]", "label 1"),
    ("CN(C)c1ccc(-c2ccc(NN=C(C#N)C#N)cc2)cc1 [Compound 151]", "label 0"),
    ("N#CC(C#N)=NNc1cnc2[nH]cc(Cl)c2c1 [Compound 83]", "label 1"),
    ("Cc1cnc(C(=O)Nc2nc3ccc(NN=C(C#N)C#N)cc3s2)cn1 [Compound 93]", "label 1"),
    ("COc1cnc(-c2ccc(NN=C(C#N)C#N)cc2)nc1 [Compound 8]", "label 1"),
    ("N#CC(C#N)=NNc1ccc2cn[nH]c2c1 [Compound 70]", "label 0"),
    ("N#CC(C#N)=NNc1ccc2nc(NC(=O)c3ccccc3O)sc2c1 [Compound 87]", "label 0"),
]

Shifting focus to the compound that follows.
A record lists N#CC(C#N)=NNc1cnc2[nH]ccc2c1 [Compound 72] . Is its liver microsomal stability, Rat (%) below 70%?
label 0
